Just for reference, ChEMBL document CHEMBL3813651 is where these values come from.

Entries and their measured logP follow.
Assay Method Text: Lipophilicity , logP of the compound
Type: physicochemical
Condition Set: octanol/water

A selection of reference data follows.
Smiles Representation	Observed Measurement
CCCc1ccc(C(=O)NN(C(=O)c2cc(C)cc(C)c2)C(C)(C)C)cc1	4.86
Cc1cccc(C(=O)NN(C(=O)c2cc(C)cc(C)c2)C(C)(C)C)c1	3.98
Cc1cc(C)cc(C(=O)N(NC(=O)c2ccc(Cl)cc2)C(C)(C)C)c1	4.31
Cc1cc(C)cc(C(=O)N(NC(=O)c2ccccc2C)C(C)(C)C)c1	3.98
CC(C)(C)N(NC(=O)c1cc(Cl)cc(Cl)c1)C(=O)c1ccccc1Cl	4.29
CC(C)(C)N(NC(=O)c1cccc(I)c1)C(=O)c1ccccc1Cl	3.87
Cc1cc(C)cc(C(=O)N(NC(=O)c2cccc(C)c2C)C(C)(C)C)c1	4.43
CC(C)(C)N(NC(=O)c1ccccc1I)C(=O)c1ccccc1Cl	3.11

## Task # lookup: logP of `CC(C)(C)N(NC(=O)c1ccccc1C(F)(F)F)C(=O)c1ccccc1Cl`
## Result 3.02

## Task # lookup: logP of `Cc1cccc(C(=O)NN(C(=O)c2ccccc2Cl)C(C)(C)C)c1C`
## Result 3.4

###

Assay System: ATP-dependent translocase ABCB1 (Homo sapiens, UniProt P08183)
Sequence (P08183 whole entry): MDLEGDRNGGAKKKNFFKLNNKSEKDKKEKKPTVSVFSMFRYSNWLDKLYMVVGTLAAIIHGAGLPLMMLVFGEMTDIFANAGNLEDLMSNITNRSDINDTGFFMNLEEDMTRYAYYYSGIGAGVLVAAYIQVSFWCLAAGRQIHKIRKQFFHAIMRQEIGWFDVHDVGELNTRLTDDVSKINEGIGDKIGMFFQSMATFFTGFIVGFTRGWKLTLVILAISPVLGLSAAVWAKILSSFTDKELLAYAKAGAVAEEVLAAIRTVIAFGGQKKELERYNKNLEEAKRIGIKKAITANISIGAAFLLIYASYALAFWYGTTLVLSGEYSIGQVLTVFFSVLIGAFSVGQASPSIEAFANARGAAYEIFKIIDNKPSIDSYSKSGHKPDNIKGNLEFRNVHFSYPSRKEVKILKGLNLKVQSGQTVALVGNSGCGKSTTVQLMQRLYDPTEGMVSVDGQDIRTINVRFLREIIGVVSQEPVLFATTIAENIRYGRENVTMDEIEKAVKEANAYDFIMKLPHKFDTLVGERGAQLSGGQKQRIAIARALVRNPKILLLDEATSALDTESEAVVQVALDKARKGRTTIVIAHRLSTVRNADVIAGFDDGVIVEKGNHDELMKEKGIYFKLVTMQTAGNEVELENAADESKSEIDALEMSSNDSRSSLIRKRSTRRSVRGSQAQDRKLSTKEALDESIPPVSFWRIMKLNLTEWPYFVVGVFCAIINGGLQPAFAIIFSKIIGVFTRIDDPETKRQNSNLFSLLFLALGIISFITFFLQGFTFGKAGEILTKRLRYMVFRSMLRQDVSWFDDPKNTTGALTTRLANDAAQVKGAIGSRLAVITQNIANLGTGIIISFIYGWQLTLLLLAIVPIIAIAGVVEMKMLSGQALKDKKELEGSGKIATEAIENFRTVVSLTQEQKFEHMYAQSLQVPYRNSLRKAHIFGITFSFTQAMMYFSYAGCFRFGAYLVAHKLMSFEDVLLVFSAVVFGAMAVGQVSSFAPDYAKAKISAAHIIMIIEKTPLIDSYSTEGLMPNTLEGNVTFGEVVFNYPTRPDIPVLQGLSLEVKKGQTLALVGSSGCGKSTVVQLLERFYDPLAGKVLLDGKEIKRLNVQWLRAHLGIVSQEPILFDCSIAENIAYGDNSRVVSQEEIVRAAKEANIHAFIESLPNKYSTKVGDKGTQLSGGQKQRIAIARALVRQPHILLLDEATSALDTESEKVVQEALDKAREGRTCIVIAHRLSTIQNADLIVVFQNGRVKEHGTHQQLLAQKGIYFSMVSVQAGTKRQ
Assay Method Text: Inhibition of human P-glycoprotein transfected in pig LLC-GA5-COL150 cells assessed as quinidine transport from apical to basolateral side preincubated for 30 mins followed by quinidine addition to apical side measured after 60 mins
Property Name: pIC50
Interpret pIC50 as the negative base-10 log of the concentration measured in mol/L.

A selection of reference data follows.
Compound	Observed Measurement
Cc1cccc(C(=O)NN(C(=O)c2cc(C)cc(C)c2)C(C)(C)C)c1	4.32
CC(C)(C)N(NC(=O)c1ccccc1-c1ccccc1)C(=O)c1ccccc1Cl	4.90
CC(C)(C)N(NC(=O)c1cc(Cl)ccc1Cl)C(=O)c1ccccc1Cl	4.33
COc1cccc(C(=O)NN(C(=O)c2cc(C)cc(C)c2)C(C)(C)C)c1	4.24
CCCc1ccc(C(=O)NN(C(=O)c2cc(C)cc(C)c2)C(C)(C)C)cc1	4.82
Cc1cc(C)cc(C(=O)N(NC(=O)c2ccccc2C)C(C)(C)C)c1	4.10
Cc1ccc(C)c(C(=O)NN(C(=O)c2ccccc2Cl)C(C)(C)C)c1	4.13
CC(C)(C)N(NC(=O)c1cccc(Cl)c1)C(=O)c1ccccc1Cl	4.34

## Task # lookup: pIC50 of `CC(C)(C)N(NC(=O)c1cccc([N+](=O)[O-])c1)C(=O)c1ccccc1Cl`
## Result 4.19

## Task # lookup: pIC50 of `Cc1cc(C)cc(C(=O)N(NC(=O)c2ccccc2)C(C)(C)C)c1`
## Result 4.00

## Task # lookup: pIC50 of `CC(C)(C)N(NC(=O)c1cccc(C(F)(F)F)c1)C(=O)c1ccccc1Cl`
## Result 4.36

###

Entries and their measured inhibition at 1 h, 30 µM follow.
Assay System: P-glycoprotein (ABCB1) (Homo sapiens, UniProt P08183)
Sequence (P08183 whole entry): as above
Assay Method Text: Inhibition of human P-glycoprotein transfected in pig LLC-GA5-COL150 cells assessed as quinidine transport from apical to basolateral side at 30 uM preincubated for 30 mins followed by quinidine addition to apical side measured after 60 mins
Type: cell-based
Condition Set: LLC-PK1, probe quinidine
Expressed in %, but write only the number.

A selection of reference data follows.
Smiles Representation	inhibition at 1 h, 30 µM, %
CC(C)(C)N(NC(=O)c1cccc([N+](=O)[O-])c1)C(=O)c1ccccc1Cl	16.6
CCCc1ccc(C(=O)NN(C(=O)c2ccccc2Cl)C(C)(C)C)cc1	48.7

## Task # lookup: inhibition at 1 h, 30 µM of `Cc1cc(C)cc(C(=O)N(NC(=O)c2ccc(C)c(C)c2C)C(C)(C)C)c1`
## Result 54.2

## Task # lookup: inhibition at 1 h, 30 µM of `Cc1cc(C)cc(C(=O)N(NC(=O)c2ccc(Cl)cc2)C(C)(C)C)c1`
## Result 14.2

## Task # lookup: inhibition at 1 h, 30 µM of `CC(C)(C)N(NC(=O)c1cccc(Br)c1)C(=O)c1ccccc1Cl`
## Result 33

## Task # lookup: inhibition at 1 h, 30 µM of `CC(C)(C)N(NC(=O)c1ccc(Cl)c(Cl)c1)C(=O)c1ccccc1Cl`
## Result 98.9

## Task # lookup: inhibition at 1 h, 30 µM of `CC(C)(C)N(NC(=O)c1c(F)cccc1Cl)C(=O)c1ccccc1Cl`
## Result 6.9
